test: Pharmacokinetic data from toxicology study in dogs, one-hour intravenous infusion; assay type: in vivo; conditions: both sexes, dog, plasma, iv; 15 mg/kg, 60 min infusion

>  <SMILES STR>
CC1(C)CCC2=C(O1)c1ccccc1C(=O)C2=O

>  <Cmax / ng/mL>
1150

$$$$

Values from patent US20050187288A1
